Catalogue of binders with associated EC50
Target: T1, human BCMA with a His tag (ACROBiosystems, Catalog No.: BCA-H522y) (human)
T1 construct: Bought His-tagged recombinant protein; also called huBCMA-His; Recombinant human BCMA
T1 chain: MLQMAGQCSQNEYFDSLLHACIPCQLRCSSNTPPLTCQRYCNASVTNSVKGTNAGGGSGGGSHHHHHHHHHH
Assay: ELISA, plate-coated human BCMA-His

binder	EC50
SCT-Aa13(h/h) (antibody, V domains shown, Full IgG format, chimeric: human IgG1 heavy chain constant region, human kappa light chain constant region) VH: QVQLQQSDAELVKPGASVKISCKVSGYTFTDYTIHWMKQRPEQGLEWIGYIYPRDGSTKYNEKFKGKATLTADKSSSTAYMQLNSLTSEDSAVYFCARWDYEGFDYWGQGTTLTVSS VL: DIVMTQSPATLSVTPGDRVSLSCRASQSISDYLHWYQQKSHESPRLLIKYASQSISGIPSRFSGSGSGSDFTLSINSVEPEDVGVYYCQNGHSFPPTFGSGTKLEIK	2.68 ng/mL
SCT-Aa11(m/m) (antibody, V domains shown, Full IgG format: mouse IgG1 heavy chain constant region, mouse kappa light chain constant region) VH: QVQLQQSDAELVKPGASVKISCKVSGYTFTDHTIHWMKQRPEQGLEWIGYIFPRDGTTKFNEMFKGKATLTADKSSSTAYMELNSLTSEDSAVYFCARWDYEGFDYWGQGTTLTVSS VL: DIVMTQSPATLSVTPGDRVSLSCRASQSISDYLHWYQQKSHESPRLLIKYASQFISGIPSRFRGSGSGSDFTLSINSVEPEDVGVYYCQNGHSFPPTFGSGTKLEIK	2.38 ng/mL
SCT-Aa09(m/m) (antibody, V domains shown, Full IgG format: mouse IgG1 heavy chain constant region, mouse kappa light chain constant region) VH: QVQLQQSDAELVKPGASVKISCKVSGYTFTDHTIHWMKQRPEQGLEWIGYFYPRDDNTKYNEKFKGKATLTADRSSSTAYMQLNSLTSEDSAVYFCARWDYEGFDYWGQGTTLTVSS VL: DIVMTQSPATLSVTPGDRVSLSCRASQSIRDYLHWYQQKSHESPRLLIKYASQSISGIPSRFSGSGSGSDFTLSINSVEPEDVGVYYCQNGHSFPPTFGSGTKLEIK	1.96 ng/mL
SCT-Aa16(h/h) (antibody, V domains shown, Full IgG format, chimeric: human IgG1 heavy chain constant region, human kappa light chain constant region) VH: EVQLQQSGPELVKPGASVKMSCKGSGYTFTNYIMHWVKQKPGQGLEWIGYIIPYNDNTKYNEKFKGKATLTSDKSSSTAYMELSSLTSEDSAVYYCATYEYDVGLDYWGQGTTLTVSS VL: DLQMTQTTSSLSASLGDRVTISCSARQGIVNYLNWYQQKPDGTVKLLIYNTSSLHSGVPSRFSGSGSGTDYSLTISNLEPEDIATYYCQQYSKLPWTFGGGTKLEIK	2.01 ng/mL
SCT-Aa11(h/h) (antibody, V domains shown, Full IgG format, chimeric: human IgG1 heavy chain constant region, human kappa light chain constant region) VH: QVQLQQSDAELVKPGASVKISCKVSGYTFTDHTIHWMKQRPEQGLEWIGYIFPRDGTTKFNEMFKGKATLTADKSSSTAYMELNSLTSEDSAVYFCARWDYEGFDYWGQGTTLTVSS VL: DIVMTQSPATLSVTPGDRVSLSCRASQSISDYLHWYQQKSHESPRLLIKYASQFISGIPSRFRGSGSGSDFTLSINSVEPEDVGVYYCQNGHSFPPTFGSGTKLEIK	3.85 ng/mL
SCT-Aa19(h/h) (antibody, V domains shown, Full IgG format, chimeric: human IgG1 heavy chain constant region, human kappa light chain constant region) VH: QVQLQQSGPELVKPGASVRISCKASGCTFTDYYIHWVKQRPGQGLEWIGWIYPGNLNSKFNEKFRDKATLTADNSSSTAYMQLSSLTSEDSAVYFCARYNYEGYFDYWGQGTTLTVSS VL: DIVMTQSPATLSVTPGDRVSLSCRASQSIADSLHWYQQKSHESPRLLIKYASHSISGIPSRFRGSGSGSDFTLSINSVEPEDVGVYYCQNGHSFPLTFGAGTKLELK	3.38 ng/mL
SCT-Aa13(m/m) (antibody, V domains shown, Full IgG format: mouse IgG1 heavy chain constant region, mouse kappa light chain constant region) VH: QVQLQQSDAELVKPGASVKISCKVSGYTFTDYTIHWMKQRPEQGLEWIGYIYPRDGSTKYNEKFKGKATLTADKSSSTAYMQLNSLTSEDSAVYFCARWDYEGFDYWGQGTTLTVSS VL: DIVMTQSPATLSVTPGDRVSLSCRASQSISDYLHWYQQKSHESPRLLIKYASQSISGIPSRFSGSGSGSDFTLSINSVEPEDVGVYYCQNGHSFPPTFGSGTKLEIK	2.64 ng/mL
SCT-Aa03(h/h) (antibody, V domains shown, Full IgG format, chimeric: human IgG1 heavy chain constant region, human kappa light chain constant region) VH: EVKLLQSGGGLVQPGGSLKLSCAASGIDFSRYWMSWVRRAPGKGLEWIGEINPDSSTINYAPSLKDKFIISRDNAKNTLYLQMSKVRSEDTALYYCASFYYDYDHAMDYWGQGTSVTVSS VL: DIVMTQSQKFMSTSVGDRFSVTCKASQNVGTNVAWYQQKPGQSPKALIYSASYRFSGVPDRFTGSGSGTDFTLTISNVQSEDLAEYFCQQYNSYPFTFGSGTKLEIK	3.46 ng/mL
SCT-Aa15(h/h) (antibody, V domains shown, Full IgG format, chimeric: human IgG1 heavy chain constant region, human kappa light chain constant region) VH: QVQLQQSDAELVKPGPSVKISCKVSGSTFTDHTVHWMKQRPEQGLEWIGYVYPRDGSTRYNEKFKGKATLTADKSSSTAYMQLNSLTSEDSAVYFCARWDYEGFDYWGQGTTLTVSS VL: DIVMTQSPATLSVTPGDRVSLSCRASQNISDYLHWYQQKSHESPRLLIKYASQSISGIPSRFSGSGSGSDFTLSINSVEPEDVGVYYCQNGHSFPPTFGSGTKLKIK	3.71 ng/mL
